Entries and their IC50 values follow.
# Tested on: A2780s cells (ovarian cancer)
# Assay comment: Cell proliferation inhibition, A2780s (MTT)
# Type: cell-based
# Condition set: Homo sapiens, 96 h incubation, read-out: Proliferation IC50, Ovarian cancer A2780s

| Molecule | IC50 |
| --- | --- |
| CN(Cc1nc2c(N3CCOCC3)nc(-c3ccc(Cl)c(C(F)(F)F)c3)nc2n1C)c1ncc(C(=O)NO)cn1 [CLJ-54] | 100 to 1000 nM |
| CN(Cc1nc2c(N3CCOCC3)nc(Cl)nc2n1C)c1ncc(C(=O)NO)cn1 [CLJ-68] | 10 to 100 nM |
| CN(C)CCn1cc(-c2nc(N3CCOCC3)c3nc(CN(C)c4ncc(C(=O)NO)cn4)n(C)c3n2)cn1 [CLJ-25] | 0.1 to 10 nM |
| CN(Cc1nc2c(N3CCOCC3)nc(-c3ccc[nH]3)nc2n1C)c1ncc(C(=O)NO)cn1 [CLJ-24] | 0.1 to 10 nM |
| COc1ccc(-c2nc(N3CCOCC3)c3nc(CN(C)c4ncc(C(=O)NO)cn4)n(C(C)C)c3n2)cc1 [CLJ-31] | > 1000 nM |
| CN(Cc1nc2c(N3CCOCC3)nc(-c3cnc4ccccc4c3)nc2n1C)c1ncc(C(=O)NO)cn1 [CLJ-14] | 0.1 to 10 nM |
| CNc1ncc(-c2nc(N3CCOCC3)c3nc(CN(C)c4ncc(C(=O)NO)cn4)n(C)c3n2)cn1 [CLJ-12] | 0.1 to 10 nM |
| CCCCc1ccc(-c2nc(N3CCOCC3)c3nc(CN(C)c4ncc(C(=O)NO)cn4)n(C)c3n2)s1 [CLJ-21] | 0.1 to 10 nM |
| CN(Cc1nc2c(N3CCOCC3)nc(-c3cccc(O)c3)nc2n1C)c1ncc(C(=O)NO)cn1 [CLJ-27] | 10 to 100 nM |
| CN(Cc1nc2c(N3CCOCC3)nc(-c3ccc(C(=O)O)s3)nc2n1C)c1ncc(C(=O)NO)cn1 [CLJ-20] | 10 to 100 nM |
| Nc1cc(F)ccc1NC(=O)c1ccc(CNC(=O)/C=C/c2cccnc2)cc1 [Chidamide, chidamide, reference compound] | > 1000 nM |
| Cc1[nH]c2ccccc2c1CCNCc1ccc(/C=C/C(=O)NO)cc1 [LBH589, panobinostat, reference compound] | 0.1 to 10 nM |
| Cc1ccsc1-c1nc(N2CCOCC2)c2nc(CN(C)c3ncc(C(=O)NO)cn3)n(C)c2n1 [CLJ-19] | 10 to 100 nM |
| CCCN(Cc1nc2c(N3CCOCC3)nc(-c3ccc(OC)nc3)nc2n1C)c1ncc(C(=O)NO)cn1 [CLJ-6] | > 1000 nM |
| CCNc1ccc(-c2nc(N3CCOCC3)c3nc(CN(C)c4ncc(C(=O)NO)cn4)n(C)c3n2)cc1 [CLJ-48] | 0.1 to 10 nM |
| CN(Cc1nc2c(N3CCOCC3)nc(-c3ccsc3)nc2n1C)c1ncc(C(=O)NO)cn1 [CLJ-22] | 0.1 to 10 nM |

* * *

# Assay target: HDAC1 (Homo sapiens, UniProt Q13547)
# Construct: purchased BPS Bioscience
# Sequence (Q13547 whole entry, species assumed): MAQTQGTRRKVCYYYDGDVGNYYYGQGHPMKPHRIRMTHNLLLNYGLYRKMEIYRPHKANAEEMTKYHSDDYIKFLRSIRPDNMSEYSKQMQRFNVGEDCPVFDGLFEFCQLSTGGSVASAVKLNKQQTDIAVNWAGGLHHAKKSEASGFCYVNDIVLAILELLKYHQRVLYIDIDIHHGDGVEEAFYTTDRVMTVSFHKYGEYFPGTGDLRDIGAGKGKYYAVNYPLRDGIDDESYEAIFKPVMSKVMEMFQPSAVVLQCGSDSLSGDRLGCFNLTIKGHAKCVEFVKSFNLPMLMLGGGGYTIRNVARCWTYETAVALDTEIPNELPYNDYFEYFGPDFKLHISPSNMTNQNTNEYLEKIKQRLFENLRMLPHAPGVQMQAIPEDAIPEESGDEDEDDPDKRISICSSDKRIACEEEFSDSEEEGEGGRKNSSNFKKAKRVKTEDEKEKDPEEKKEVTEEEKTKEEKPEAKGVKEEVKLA
# Assay comment: In vitro HDAC1 enzymatic activity inhibition (Lys-Ac-AMC substrate)
# Assay type: biochemical
# Condition set: Table 1, graded; read-out: HDAC1 IC50
pIC50: −log10 of the molar value.
# pIC50 per record follows

| Compound | Assay target | pIC50 |
| --- | --- | --- |
| CN(Cc1nc2c(N3CCOCC3)nc(-c3ccc4c(c3)OCO4)nc2n1C)c1ncc(C(=O)NO)cn1 | HDAC1 (Homo sapiens, UniProt Q13547) | > 9.00 |
| CN(Cc1nc2c(N3CCOCC3)nc(-c3ccc(CN4CCOCC4)cc3)nc2n1C)c1ncc(C(=O)NO)cn1 | HDAC1 (Homo sapiens, UniProt Q13547) | > 9.00 |
| COc1ccc(-c2nc(N3CCN(CCO)CC3)c3nc(CN(C)c4ncc(C(=O)NO)cn4)n(C)c3n2)cc1 | HDAC1 (Homo sapiens, UniProt Q13547) | > 7.00 |

* * *

This section lists IC50 readings for HDAC4 (Homo sapiens, UniProt P56524).
Measured parameter: IC50

| Molecule | Data value |
| --- | --- |
| COc1ccc(-c2nc(N3CCOCC3)c3nc(CN(C)c4ncc(C(=O)NO)cn4)n(C)c3n2)cn1 [CLJ-1] | 1000 to 10000 nM |
| CN(Cc1nc2c(N3CCOCC3)nc(-c3ccc(N)cc3)nc2n1C)c1ncc(C(=O)NO)cn1 [CLJ-44] | 1000 to 10000 nM |
| COc1ccc(-c2nc(N3CCOCC3)c3nc(CN(C)c4ncc(C(=O)NO)cn4)n(C)c3n2)cc1 [CLJ-29] | 1000 to 10000 nM |
| CN(Cc1nc2c(N3CCOCC3)nc(-c3cnc(N)nc3)nc2n1C)c1ncc(C(=O)NO)cn1 [CLJ-11] | 100 to 1000 nM |

* * *

# Tested on: A2780s cells (ovarian cancer)
# Assay comment: Cell proliferation inhibition, A2780s (MTT)
# Format: cell-based
# Condition set: Homo sapiens, read-out: IC50 to proliferation of A2780s cells
pIC50: −log10 of the molar value.

| Compound | pIC50 |
| --- | --- |
| COc1ccc(-c2nc(N3CCOCC3)c3nc(CN(C)c4ncc(C(=O)NO)cn4)n(C)c3n2)cc1 [CLJ-29] | 8.00 to 10.00 |
| CCNc1ccc(-c2nc(N3CCOCC3)c3nc(CN(C)c4ncc(C(=O)NO)cn4)n(C)c3n2)cc1 [CLJ-48] | 8.00 to 10.00 |
| CN(Cc1nc2c(N3CCOCC3)nc(-c3ccc4c(c3)OCO4)nc2n1C)c1ncc(C(=O)NO)cn1 [CLJ-36] | 8.00 to 10.00 |
| CN(C)CCn1cc(-c2nc(N3CCOCC3)c3nc(CN(C)c4ncc(C(=O)NO)cn4)n(C)c3n2)cn1 [CLJ-25] | 8.00 to 10.00 |
| CNc1ncc(-c2nc(N3CCOCC3)c3nc(CN(C)c4ncc(C(=O)NO)cn4)n(C)c3n2)cn1 [CLJ-12] | 8.00 to 10.00 |
| CN(Cc1nc2c(N3CCOCC3)nc(-c3ccc[nH]3)nc2n1C)c1ncc(C(=O)NO)cn1 [CLJ-24] | 8.00 to 10.00 |

* * *

# Assay target: PI3Kα (Homo sapiens)
# Construct: purchased Invitrogen PV4788
# Sequence (P42336 whole entry, species assumed): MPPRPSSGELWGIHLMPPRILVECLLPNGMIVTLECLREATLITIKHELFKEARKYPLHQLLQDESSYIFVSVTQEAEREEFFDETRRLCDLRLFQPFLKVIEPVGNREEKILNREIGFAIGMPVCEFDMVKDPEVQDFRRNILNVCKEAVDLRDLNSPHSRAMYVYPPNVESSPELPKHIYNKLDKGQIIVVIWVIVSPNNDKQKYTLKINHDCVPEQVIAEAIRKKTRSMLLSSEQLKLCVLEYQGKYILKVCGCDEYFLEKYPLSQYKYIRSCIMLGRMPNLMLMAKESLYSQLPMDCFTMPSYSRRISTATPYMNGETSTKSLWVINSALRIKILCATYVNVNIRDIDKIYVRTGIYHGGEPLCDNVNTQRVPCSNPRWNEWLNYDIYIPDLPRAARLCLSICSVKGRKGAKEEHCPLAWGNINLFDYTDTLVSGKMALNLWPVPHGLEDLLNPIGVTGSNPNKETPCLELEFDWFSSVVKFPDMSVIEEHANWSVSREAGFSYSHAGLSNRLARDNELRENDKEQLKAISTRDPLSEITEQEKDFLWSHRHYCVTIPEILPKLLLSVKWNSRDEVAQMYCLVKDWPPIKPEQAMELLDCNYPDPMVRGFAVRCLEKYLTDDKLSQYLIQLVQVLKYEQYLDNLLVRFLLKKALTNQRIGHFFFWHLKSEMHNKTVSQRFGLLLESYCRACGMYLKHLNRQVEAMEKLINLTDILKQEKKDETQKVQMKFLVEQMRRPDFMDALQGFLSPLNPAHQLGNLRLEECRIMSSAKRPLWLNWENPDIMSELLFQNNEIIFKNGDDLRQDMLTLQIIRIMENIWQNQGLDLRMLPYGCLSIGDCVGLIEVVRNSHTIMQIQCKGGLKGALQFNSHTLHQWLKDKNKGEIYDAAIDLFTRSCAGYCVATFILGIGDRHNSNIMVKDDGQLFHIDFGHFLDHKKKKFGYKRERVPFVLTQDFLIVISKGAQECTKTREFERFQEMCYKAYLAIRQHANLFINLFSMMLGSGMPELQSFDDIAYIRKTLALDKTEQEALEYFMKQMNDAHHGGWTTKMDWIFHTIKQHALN
# Sequence (P27986 whole entry partner, species assumed): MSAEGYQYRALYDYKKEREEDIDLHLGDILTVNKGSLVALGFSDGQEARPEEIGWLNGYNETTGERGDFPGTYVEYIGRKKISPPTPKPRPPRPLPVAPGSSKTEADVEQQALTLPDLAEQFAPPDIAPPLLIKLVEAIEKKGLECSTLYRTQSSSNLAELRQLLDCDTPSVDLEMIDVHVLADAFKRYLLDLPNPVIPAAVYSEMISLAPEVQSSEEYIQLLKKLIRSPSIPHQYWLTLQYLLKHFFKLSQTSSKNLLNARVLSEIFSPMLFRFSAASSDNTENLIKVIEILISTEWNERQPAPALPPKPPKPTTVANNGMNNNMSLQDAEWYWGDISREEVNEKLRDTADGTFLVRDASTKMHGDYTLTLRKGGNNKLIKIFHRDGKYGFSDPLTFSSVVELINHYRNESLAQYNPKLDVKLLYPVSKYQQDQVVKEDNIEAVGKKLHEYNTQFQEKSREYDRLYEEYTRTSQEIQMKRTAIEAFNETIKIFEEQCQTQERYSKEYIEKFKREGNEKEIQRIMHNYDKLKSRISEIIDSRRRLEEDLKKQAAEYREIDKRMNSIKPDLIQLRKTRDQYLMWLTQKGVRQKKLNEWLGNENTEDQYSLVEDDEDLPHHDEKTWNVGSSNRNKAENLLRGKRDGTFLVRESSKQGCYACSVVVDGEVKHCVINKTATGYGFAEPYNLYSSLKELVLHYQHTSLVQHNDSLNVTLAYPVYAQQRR
# Assay comment: PI3Kα activity inhibition (Kinase-Glo)
# Type: biochemical
# Condition set: Table 1, graded; read-out: PI3Kα IC50
pIC50: −log10 of the molar value.

| Compound | pIC50 |
| --- | --- |
| CN(Cc1nc2c(N3CCOCC3)nc(-c3ccc4c(c3)OCCO4)nc2n1C)c1ncc(C(=O)NO)cn1 | < 5.00 |
| CN(Cc1nc2c(N3CCOCC3)nc(-c3cccc(C(=O)NCCO)c3)nc2n1C)c1ncc(C(=O)NO)cn1 | < 5.00 |
| CN(Cc1nc2c(N3CCOCC3)nc(-c3ccc4c(c3)OCO4)nc2n1C)c1ncc(C(=O)NO)cn1 | < 5.00 |
| CN(Cc1nc2c(N3CCOCC3)nc(-c3cccc(OCCO)c3)nc2n1C)c1ncc(C(=O)NO)cn1 | 6.00 to 7.00 |
| CN(Cc1nc2c(N3CCOCC3)nc(-c3ccc(NC(=O)OC(C)(C)C)cc3)nc2n1C)c1ncc(C(=O)NO)cn1 | < 5.00 |
| CN(Cc1nc2c(N3CCOCC3)nc(-c3cccc(C(N)=O)c3)nc2n1C)c1ncc(C(=O)NO)cn1 | < 5.00 |
| CN(Cc1nc2c(N3CCOCC3)nc(-c3ccc(C(C)(C)C)cc3)nc2n1C)c1ncc(C(=O)NO)cn1 | < 5.00 |
| CN(Cc1nc2c(N3CCOCC3)nc(-c3cnc4ccccc4c3)nc2n1C)c1ncc(C(=O)NO)cn1 | < 5.00 |
| COc1ccc(-c2nc(N3CCOCC3)c3nc(CN(C)c4ncc(C(=O)NO)cn4)n(C)c3n2)cc1 | < 5.00 |
| COc1ccc(-c2nc(N3CCOCC3)c3nc(CNc4ncc(C(=O)NO)cn4)n(C)c3n2)cc1 | < 5.00 |
| CN(Cc1nc2c(N3CCOCC3)nc(-c3ccc(C(=O)O)s3)nc2n1C)c1ncc(C(=O)NO)cn1 | < 5.00 |
| CN(Cc1nc2c(N3CCOCC3)nc(-c3cnc(N)nc3)nc2n1C)c1ncc(C(=O)NO)cn1 | > 7.00 |
| CCc1ccc(-c2nc(N3CCOCC3)c3nc(CN(C)c4ncc(C(=O)NO)cn4)n(C)c3n2)cc1 | < 5.00 |
| CN(Cc1nc2c(N3CCOCC3)nc(-c3ccco3)nc2n1C)c1ncc(C(=O)NO)cn1 | < 5.00 |
| CCCCN(Cc1nc2c(N3CCOCC3)nc(-c3ccc(NC)cc3)nc2n1C)c1ncc(C(=O)NO)cn1 | < 5.00 |
| CCn1c(CN(C)c2ncc(C(=O)NO)cn2)nc2c(N3CCOCC3)nc(-c3ccc(OC)cc3)nc21 | < 5.00 |
| COc1ccc(-c2nc(N3CCN(CCO)CC3)c3nc(CN(C)c4ncc(C(=O)NO)cn4)n(C)c3n2)cc1 | < 5.00 |
| CN(Cc1nc2c(N3CCOCC3)nc(-c3cccc(S(=O)(=O)NCO)c3)nc2n1C)c1ncc(C(=O)NO)cn1 | < 5.00 |
| COc1ccc(-c2nc(N3CCOCC3)c3nc(CN(C)c4ncc(C(=O)NO)cn4)n(C(C)C)c3n2)cc1 | < 5.00 |
| CN(Cc1nc2c(N3CCOCC3)nc(-c3ccc(S(C)(=O)=O)cc3)nc2n1C)c1ncc(C(=O)NO)cn1 | < 5.00 |
| CNc1ncc(-c2nc(N3CCOCC3)c3nc(CN(C)c4ncc(C(=O)NO)cn4)n(C)c3n2)cn1 | > 7.00 |
| CN(Cc1nc2c(N3CCOCC3)nc(-c3ccc(Cl)c(C(F)(F)F)c3)nc2n1C)c1ncc(C(=O)NO)cn1 | < 5.00 |
| CN(Cc1nc2c(N3CCOCC3)nc(-c3cccnc3)nc2n1C)c1ncc(C(=O)NO)cn1 | < 5.00 |
| CN(Cc1nc2c(N3CCOCC3)nc(-c3cccc(C(=O)N4CCN(CO)CC4)c3)nc2n1C)c1ncc(C(=O)NO)cn1 | < 5.00 |
| CN(Cc1nc2c(N3CCOCC3)nc(-c3ccc[nH]3)nc2n1C)c1ncc(C(=O)NO)cn1 | 5.00 to 6.00 |
| CN(Cc1nc2c(N3CCOCC3)nc(-c3ccc(N)cc3)nc2n1C)c1ncc(C(=O)NO)cn1 | 5.00 to 6.00 |
| Cc1ccsc1-c1nc(N2CCOCC2)c2nc(CN(C)c3ncc(C(=O)NO)cn3)n(C)c2n1 | < 5.00 |
| COc1ccc(C(F)(F)F)cc1-c1nc(N2CCOCC2)c2nc(CN(C)c3ncc(C(=O)NO)cn3)n(C)c2n1 | < 5.00 |
| CN(Cc1nc2c(N3CCOCC3)nc(Cl)nc2n1C)c1ncc(C(=O)NO)cn1 | < 5.00 |
| COc1ccc(-c2nc(N3CCOCC3)c3nc(CN(C)c4ncc(C(=O)NO)cn4)n(C(C)C)c3n2)cn1 | 5.00 to 6.00 |
| CCCc1ccc(-c2nc(N3CCOCC3)c3nc(CN(C)c4ncc(C(=O)NO)cn4)n(C)c3n2)cc1 | < 5.00 |
